Molecular target: Cellular tumor antigen p53 (Homo sapiens) (UniProt P04637)
Sequence (P04637 whole entry, looked up): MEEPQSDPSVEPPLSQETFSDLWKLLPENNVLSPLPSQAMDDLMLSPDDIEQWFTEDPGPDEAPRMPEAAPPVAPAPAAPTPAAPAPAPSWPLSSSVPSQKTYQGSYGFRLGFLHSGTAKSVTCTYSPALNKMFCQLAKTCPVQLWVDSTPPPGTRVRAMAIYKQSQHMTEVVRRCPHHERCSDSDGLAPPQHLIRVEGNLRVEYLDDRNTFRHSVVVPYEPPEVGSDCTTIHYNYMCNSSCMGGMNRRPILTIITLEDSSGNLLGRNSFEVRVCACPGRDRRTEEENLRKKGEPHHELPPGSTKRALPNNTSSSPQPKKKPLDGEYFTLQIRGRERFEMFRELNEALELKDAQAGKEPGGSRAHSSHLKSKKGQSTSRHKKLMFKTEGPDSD
Assay: TOX21_p53_BLA_p4_ratio: Tox21 HCT-116 p53 Agonism Beta-lactamase Assay, Ratio, Phase 4 (AID 2283601)
Records with an inconclusive call do not appear. Active and inactive are the calls of the source. The calls were made as follows: active = hit-call score of the fitted dose curve at least 0.9, where 1 is the maximum; inconclusive = response in the unintended direction; inactive = score below 0.9.
Outcomes: active, inactive

>>> print(df.to_string())
                                   compound  category_label
0                     Oc1cc2ccccc2c2ccccc12          active
1  CC(=O)NC1(c2cccc(F)c2)CCN(CC[C@@]2(c3ccc(Cl)c(Cl)c3)CN(c3ccccc3)C(=O)CO2)CC1          active
2  CCCCC(CC)COC(=O)CCCCC(=O)OCc1ccccc1 (stereo not given)        inactive
3  OCCC(F)(F)C(F)(F)C(F)(F)C(F)(F)C(F)(F)C(F)(F)F        inactive
4                    c1ccc2c(c1)Cc1ccccc1-2        inactive
5                            CCCCCCCCC(=O)O        inactive
6  O=C(O)Cc1cc(I)c(Oc2cc(I)c(O)c(I)c2)c(I)c1          active
7         O=C(OCCOCCOC(=O)c1ccccc1)c1ccccc1        inactive
8    CC(C)CCCCCCOC(=O)CCCCC(=O)OCCCCCCC(C)C        inactive
9  CCc1ccc(CCOc2ccc(CC3SC(=O)NC3=O)cc2)nc1 (stereo not given)        inactive
